tested on: ACHN renal; assay: NCI-60 one-dose screen, 48 h; conditions: 10 µM unless noted
About 83,000 compounds went through this panel and 20% of them were active in at least one assay; those are over-represented in the sample as a whole. Active and inactive are the calls of the source. Rule for the calls: active = growth percent below 10; inactive = the rest.
Pick one: active, inactive

Sample answers from the record:
Could you please tell me the result logged for COc1ccc(/C=C2\CCCC3=C2N=C2SC(C)=NN2C3c2ccc(OC)c(OC)c2)cc1OC (stereo not given) in this assay?
inactive

Recorded call for CN(C)c1ccc(/C=N/Nc2nnc3n2N=C(c2ccc(Cl)cc2)CS3)cc1 ?
inactive

For this compound, state the assay outcome: O=C1C2=C(C(=O)c3c(O)ccc(O)c31)N(c1ccc(N3CCOCC3)nc1)Cc1ccccc1O2
active

More entries:
For CCSc1ccc([C@@H]2[C@@H](N)C(=O)N2c2cc(OC)c(OC)c(OC)c2)cc1 , which call appears in the assay record?
inactive

What call does the record list for CC1=NC(c2ccc(Cl)cc2)C2=C(N1)/C(=C/c1ccc(Cl)cc1)CCC2 (stereo not given) ?
inactive

====

tested on: HCC-2998 colon; experiment: NCI-60 one-dose screen, 48 h; details: 10 µM unless noted
About 83,000 compounds went through this panel and 20% of them were active in at least one assay; those are over-represented in the sample as a whole. The source made the active and inactive calls. The calls were made as follows: active = growth percent below 10; inactive = the rest.
Select the correct class. Options are active, inactive and nothing else.

Below are worked cases with known answers.
Dear colleague, could you share the recorded outcome for CC(C)(C)c1ccc(Cn2c(-c3nonc3N)nc3ccccc32)cc1 when you have a moment?
inactive

Outcome? COc1ccc(/C=c2\c(=O)n(-c3ccccc3)c3nn4c(=O)c(=O)[nH]nc4n23)cc1
inactive

Each molecule tested received a call. Report the one for O=C1C(Cl)=C(N/N=c2/[nH][nH]/c(=N/NC3=C(Cl)C(=O)c4ccccc4C3=O)c3ccccc23)C(=O)c2ccccc21 .
inactive

Call for entry COc1ccc(NC(=O)/C=C/c2ccc(Cl)c(Cl)c2)cn1 :
inactive

GET /call?item= COc1cc(NC(C)CCCN)c2ncccc2c1Sc1ccc(Cl)cc1 (stereo unspecified) returns the recorded outcome of this test.
inactive

Further cases:
Write down the call the test reported for this molecule. Item: O=C(CSc1ccc(Cl)cc1)Nc1ccc(-c2nc3ccccc3s2)c(Cl)c1
inactive

Look up the recorded call for C#CCNC(=S)N/N=C(\C)c1ccccn1 in this test.
inactive

What is the recorded call for this molecule in the test? F
inactive

====

tested on: SK-MEL-5 melanoma; experiment: NCI-60 one-dose screen, 48 h (100 = growth as untreated, 0 = no growth, -100 = all killed); conditions: 10 µM unless noted
About 83,000 compounds went through this panel and 20% of them were active in at least one assay; those are over-represented in the sample as a whole.
measured.property: growth (%)
Give bare numbers, in %.

Solved cases (2 shown):
Lookup result for C=CCn1c(SCC(=O)Nc2ccc(C(=O)/C=C/c3ccccc3)cc2)nnc1-c1ccc(OC)c(OC)c1 ; measured growth: 61.3

Please fill in: growth reported for c1ccc(-c2[nH]c3ccccc3c2-c2ccccc2)cc1 = 104

Quick batch: growth for everything below.
1. O=C1/C(=C\c2cccn2C(=O)c2ccccc2)c2ccccc2N1c1c(Cl)cccc1Cl
2. Nc1nc(N)c2cc(CNc3ccc(Cl)c(Cl)c3)ccc2n1
3. O=NN(CC(=O)NNc1ccccc1)CC(=O)NNc1ccccc1
4. OC(c1cc2c(Cl)cc(Cl)cc2c2cc(C(F)(F)F)ccc12)C1CCCCN1 (stereo not drawn)

[83, 15.4, 90.5, 8.25]

Return reported growth values for all items listed beneath this line.
1. CC(=O)O[C@H]1[C@H](CC#CC#CC[C@@H]2C[C@]3(C)[C@H]4CC=C5[C@H]6[C@@H](C)[C@H](C)CC[C@]6(C(=O)NCCCCCCCCN)CC[C@@]5(C)[C@]4(C)CC[C@H]3C(C)(C)[C@H]2OC(C)=O)C[C@]2(C)[C@H]3CC=C4[C@H]5[C@@H](C)[C@H](C)CC[C@]5(C(=O)NCCCCCCCCN)CC[C@@]4(C)[C@]3(C)CC[C@H]2C1(C)C
2. O=c1[nH]c2ccccc2n2cc3cccnc3c12

1. 105
2. 73.2

====

System: NCI-H322M lung
Test: NCI-60 one-dose screen, 48 h (100 = growth as untreated, 0 = no growth, -100 = all killed)
Conditions: 10 µM unless noted
Method: Growth inhibition of the NCI-H322M human Non-Small Cell Lung tumor cell line is measured as a screen for anti-cancer activity. Cells are grown in 96 well plates and exposed to the test compound for 48 hours. Compounds are tested at a single concentration, which is 10^-5 M for most compounds. The reported endpoint is percent growth (GI% or GIPRCNT), where numbers from 0 - 100% represent growth inhibition, and numbers from -100% - 0 represent cell death. […]
About 83,000 compounds went through this panel and 20% of them were active in at least one assay; those are over-represented in the sample as a whole.
Record form. Attribute: growth. Fill in for each entry.
One number for each entry, in %.

Value of growth reported for the compound N#Cc1nc(-c2ccc(Cl)cc2)cc(-c2ccc(Nc3nc(N4CCCCC4)nc(N4CCCCC4)n3)cc2)c1N is 109

Could you report growth for every entry in the following list?
1. CNCc1cccc2c1OCCOCCOCCC(C)S(=O)(=O)c1ccc(cc1)-c1cnc(N)c(n1)C(=O)N2 (stereo not given)
2. COc1ccc(OC)c(Nc2nc(-c3c(C)nc4sccn34)cs2)c1
3. O=C(NCC(c1ccsc1)N1CCCCCC1)c1ccc(C(F)(F)F)cc1 (stereo not given)
4. CO[C@@]12[C@@H]3NC3CN1C1=C(C(=O)C(N)=C(C)C1=O)[C@@H]2COC(N)=O (stereo not given in full)

1. 67
2. 93.7
3. 99.9
4. 14.4

====

For each entry below, report its growth value.
test system: M14 melanoma; test: NCI-60 one-dose screen, 48 h (100 = growth as untreated, 0 = no growth, -100 = all killed); conditions: 10 µM unless noted
About 83,000 compounds went through this panel and 20% of them were active in at least one assay; those are over-represented in the sample as a whole.
Answers are plain numbers, in %.

Consider the following illustrative entries.
Entry CC(C)(C)c1ccc(Cn2c(-c3nonc3N)nc3ccccc32)cc1 , growth reported as 66.9

Notebook: CCCC(CCC)NCC(O)c1cc(-c2ccc(C(F)(F)F)cc2)nc(C(F)(F)F)c1 (stereo unspecified) , growth read as -74.8

Lab note: O=C1OC(c2ccc(-c3ccccc3)cc2)=C/C1=C/c1c(Cl)cccc1Cl gave growth of 105

# per-item lookup of growth; items listed below
1. CCCCCCCCCC1=NC(C)(C)CN1C(C)(C)CO
2. c1ccc2c(Cc3csc4ccccc34)csc2c1

[113, 67.7]

The following molecules each have a reported value; give each one's growth.
1. COc1ccc2[nH]c(O)c(/C=c3/ccc4c(c3)N=C(c3ccc(C(F)(F)F)cc3)N=4)c2c1
2. CCCCNCC(O)c1cc(-c2ccc(C(F)(F)F)cc2)nc(-c2ccc(C(F)(F)F)cc2)c1 (stereo unspecified)
3. Oc1[nH]c2ccc(Cl)cc2c1/C=c1/ccc2c(c1)N=C(c1ccc(F)cc1)N=2
4. CCCNC(=S)N/N=C(\C)c1ccccn1
5. COc1ccc(NC(=O)/C=C/c2ccc(NC(=O)N3CCCC3)cc2)cn1
6. O=C(/C=C/c1cn(-c2ccccc2)nc1-c1cccc(Nc2ccnc3cc(Cl)ccc23)c1)c1ccc2c(c1)OCO2
7. COc1ccc2[nH]c(C(=O)OCc3ccc4cccc(O)c4n3)cc2c1

1. 90.1
2. -79.7
3. 30.4
4. 6.11
5. 103
6. 111
7. -75.6

Report growth for every entry below.
1. Cc1cc(C)cc(CCCCCCCCCCCCCCCCCC(=O)O)c1
2. CC(C)c1[nH]ncc1-c1nc2ccc3[nH]ncc3c2c2c1CCCC2
3. COc1cc(OC)cc(-c2n/c(=C\c3c(O)[nH]c4ccc(Cl)cc34)cc3c2=Nc2ccccc2-3)c1
4. CNC(=O)c1ccccc1Sc1ccc2c(/C=C/c3ccccn3)n[nH]c2c1
5. COc1ccc(C(=O)c2cc(C)c(OC)c(C)c2)cc1OC(=O)CCl
6. CNCc1cccc2c1OCCOCCOCCC(C)S(=O)(=O)c1ccc(cc1)-c1cnc(N)c(n1)C(=O)N2 (stereo unspecified)
7. O=C1Nc2ccccc2/C1=C/c1c[nH]c2ccccc12

1: 98; 2: 37.1; 3: 86; 4: 16.9; 5: 0.344; 6: 52; 7: 91.8

Go through the list and state growth for each entry.
1. CCNC(=S)N(Cc1ccccc1)Cc1ccccc1
2. COc1cccc(OCC(O)CN2CCN(c3ccccc3)CC2)c1 (stereo unspecified)
3. COc1ccc(-c2nc(-c3cc(OC)cc(OC)c3)[nH]c2-c2ccc(OC)cc2)cc1
4. N#CC1=C(N)Oc2nc[nH]c(=O)c2C1c1cccs1 (stereo unspecified)
5. O=C(/C=C/c1ccccc1)C(Br)C(Br)c1ccccc1 (stereo unspecified)
6. O=c1[nH]c2cc(Cl)c(Cl)cc2o1
7. C=C(C)C1CCC2(C(=O)O)CCC3(C)C(CCC4C5(C)CCC(O)C(C)(C)C5CCC43C)C12 (stereo unspecified)

1: 108; 2: 104; 3: 49.7; 4: 111; 5: 17.2; 6: 105; 7: -49.9

// each listed molecule needs a value for growth
1. CCCCC(CCc1ccccn1)C(=O)c1ccccc1 (stereo unspecified)
2. Cc1ccc(N2C3c4ccccc4N(S(=O)(=O)c4ccc(C)cc4)C2c2ccccc2N3S(=O)(=O)c2ccc(C)cc2)cc1
3. C=CCn1c(SCC(=O)Nc2ccc(C(=O)/C=C/c3ccc(Cl)cc3)cc2)nnc1-c1ccc(Cl)cc1
4. COc1ccc2c(c1)CCCC21C(=O)Nc2c(Cl)cccc21 (stereo unspecified)
5. CN1CCN(Cc2ccc(NC(=O)c3cccc(C#Cc4cnc(N)c5ncccc45)c3F)cc2C(F)(F)F)CC1
6. CCCCN(CCCC)CCC(=O)c1ccc(OC)c2ccccc12
7. CC(=O)c1cc(C(=O)c2ccc3c(c2)Sc2ccccc2N3)c2c(C)cccn12

1: 108; 2: 110; 3: 95.5; 4: 38.8; 5: -76.4; 6: 104; 7: 16.9

Consider the following items and state reported growth for each.
1. Cc1nc2n[nH]c(N)c2nc1C
2. Cc1nc2ccc(Nc3nc(Cl)nc(N4CCOCC4)n3)cc2n1Cc1ccccc1
3. COc1ccc(Nc2ncnc3c2sc2nc(C)cc(C)c23)cc1
4. Cc1cc(Cl)c2ccc(N(C)C)cc2n1

1. 125
2. 103
3. 102
4. 100

I need growth for every entry listed below, if you could help.
1. Cc1ccc2nc(CN(CCN(Cc3nc4ccc(C)cc4[nH]3)Cc3nc4ccc(C)cc4[nH]3)Cc3nc4ccc(C)cc4[nH]3)[nH]c2c1
2. COC(=O)c1cc(Cl)cc([N+](=O)[O-])c1O
3. C#CC[C@@H]1C[C@]2(C)[C@H]3CC[C@@H]4[C@H]5C(C(=C)C)CC[C@]5(C(=O)NCCCN5CCN(CCCN)CC5)CC[C@@]4(C)[C@]3(C)CC[C@H]2C(C)(C)[C@H]1OC(C)=O (stereo partly specified)

1: -79.4; 2: 94.9; 3: -80.5

growth reading for COc1ccc(/C(=C\c2cc(OC)c(OC)c(OC)c2)C(=O)N2CCN(c3ccccc3)CC2)cc1O : 105
